Tested on: SK-OV-3 ovarian
Test: NCI-60 one-dose screen, 48 h (100 = growth as untreated, 0 = no growth, -100 = all killed)
Details: 10 µM
Experimental: Growth inhibition of the SK-OV-3 human tumor cell line is measured as a screen for anti-cancer activity. Cells are grown in 96 well plates and exposed to the test compound for 48 hours. Compounds are tested at a single concentration, which is 10^-5 M for most compounds. The reported endpoint is percent growth (GI% or GIPRCNT), where numbers from 0 - 100% represent growth inhibition, and numbers from -100% - 0 represent cell death. For example, a value of 40 represents 60% growth inhibition. […]
About 83,000 compounds went through this panel and 20% of them were active in at least one assay; those are over-represented in the sample as a whole.
Here, each record is paired with measured growth data.

{"columns": ["Compound", "growth, %"],
 "data": [
  ["O=C1Nc2cc(-c3ccc(NC(=O)c4cccs4)cc3)ccc2/C1=C/c1ccc[nH]1", 108],
  ["CC1=C(c2cc(-c3ccc(Cl)cc3)c(C#N)c(N)n2)C(c2ccccc2)NC(=S)N1 (stereo not given)", 126],
  ["O=C1Nc2ccc(F)cc2/C1=C/c1cccc(OCc2ccccc2)c1", 66.7],
  ["O=S(=O)(c1ccc(Cl)cc1)c1nc(-c2ccccc2)oc1S(=O)(=O)c1ccc(Cl)cc1", 94],
  ["S=c1nc(-c2ccccc2)cc(-c2cc3ccccc3nc2Cl)[nH]1", 75],
  ["CN1CCN(c2ccc(C(=O)/C=C/c3cc(C(F)(F)F)ccc3Cl)cc2)CC1", 6.75],
  ["O=C(CNc1nc(-c2ccccc2)cs1)Nc1cccc(Cl)c1", 37.7],
  ["COc1ccc(Nc2nc(N)n(Cc3cccc(Br)c3)n2)cc1", 22.8],
  ["O=C(CSc1nnc(-c2c[nH]c3ccccc23)n1-c1ccccc1)c1ccc(Cl)cc1", 72.1],
  ["CC(=O)Nc1ccc(-c2cn(-c3cccc(C(=O)Nc4cc(C(F)(F)F)cc(C(F)(F)F)c4)c3)nn2)cn1", -21.1]
]}

Data origin: PubChem BioAssay (NCI)
